# reported IC50; entries follow
- Tested on: P. falciparum 3D7 growth, pLDH absorbance
- procedure_text: blood-stage malaria parasite growth potency – strain 3D7, dose response (AID 2305)
measurement_label: IC50 (nM)

- Cc1[nH]c2ccc(NS(C)(=O)=O)cc2c1C1CCN(CC2CCN(C(=O)/C=C/c3ccc(Cl)c(Cl)c3)CC2)CC1: 680
- C#CCN1CCC2=C(C1)c1c(O)cc(C(C)CCCc3ccc(F)cc3)cc1OC2(C)C (stereo not drawn): 730
- N#CNC(=NCCCSc1csc(N=C(N)N)n1)NCCCCCCCCN=C(NC#N)NCCSCc1csc(N=C(N)N)n1: 840
- Cc1c(C2CCN(CCCCNC(=O)c3ccc(-c4ccc(C#N)cc4)cc3)CC2)c2ccccc2n1CCO: 1000
- CCc1cn(CC(=O)N(CCOc2ccc(-c3ccc(C(F)(F)F)cc3)cc2)CCN(CC)CC)c(SCc2ccc(F)cc2)nc1=O: 780
- CC(C)c1sc(N2CCN(C)CC2)nc1C(=O)Nc1ccc(F)cc1C(F)(F)F: 190
- Cc1cc(NCc2ccccc2)nc(NCc2ccccc2)n1: 970
- CCCc1c(C(=O)Nc2ccc3c(c2)CCN(C2CCC2)CC3)cnn1-c1ccc(Cl)cc1: 860
- Cc1ccc(C(=O)Cn2nc(-c3ccc(C)c(S(=O)(=O)N4CCCC4)c3)ccc2=O)cc1: 510
- N#Cc1cccc(NC(=O)Nc2ccc(-c3ccc(-c4nc5ccc(C(F)(F)F)cc5[nH]4)cc3)cc2)c1: 140
- N=C(N)c1cccc(OCCCOc2cccc(NC(=O)Nc3ccc([N+](=O)[O-])cc3)c2)c1: 860
- CCCCCCOc1ccc(C(=O)N(Cc2ccccc2)c2c(-c3ccccc3)nc3cc(C)ccn23)cc1: 770
- CCN(CC)CCN(Cc1ccc(-c2ccc(C#N)cc2)cc1)C(=O)Cn1c(CCc2cccc(F)c2F)nc(=O)c2ccccc21: 10
- CCc1cn2c3c(cc(C(=O)N[C@@H](Cc4cccc(F)c4)[C@H](O)CNC4CCOCC4)cc13)N(C)S(=O)(=O)CC2: 70
- Cc1nnc2c(NC(=O)NC3CCCC3)cc3cc(-c4ccc(CN5CCCCC5)cc4)ccc3n12: 950
- Cc1cc(=O)c(-c2ccc(Oc3ccc(Cl)cc3Cl)cc2)c(C)[nH]1: 840
- CC1CC(C)CN(S(=O)(=O)c2cc(C(=O)Nc3cccc([N+](=O)[O-])c3)ccc2Br)C1 (stereo not drawn): 900
- COc1ccc(CN2CCN(CCOC(c3ccccc3)c3ccc(Cl)cc3)CC2)c(O)c1 (stereo not drawn): 710
- O=C(/C=C/c1ccccc1Cl)Nc1ccc(Br)c(OCCN2CCN(CCN3CCOCC3)CC2)c1: 760
- N#CN1CC[C@@H](OC(=O)N[C@@H]2C[C@H]2c2ccccc2)C1: 1340
- COc1ccc(CCNCCCCCCNCCc2ccc(Cl)c3ccccc23)cc1OC: 580
- COc1ccc2c(=O)c(Br)c(C)[nH]c2c1: 190
- Oc1ccc(CCNc2nc(NCCOc3cccc4ccccc34)nc(N3CCNCC3)n2)cc1: 900
- Cc1cc(OCC2CCN(c3ncc(C(=O)NC4CC4)cc3Cl)CC2)ccc1F: 790
- CCOC(=O)c1cn(CC)c2cc(F)c(OC3C[C@@H]4CC[C@@]3(C)C4(C)C)cc2c1=O (stereo partly drawn): 930
- Cc1cc(N2CCCC2)nc(Nc2ccc(NC(=O)C(C)C)cc2)n1: 1100
- CN(C)c1ccc(-c2csc(C(=O)NC3CCN(CCC(C)(C)C)C3)c2)cc1 (stereo not drawn): 970
- COc1cc2c(c(Cl)c1OC)CCN(C(=O)C(F)(F)F)CC2c1ccccc1 (stereo not drawn): 440
- O=C(CN1CCN(C(C(=O)Nc2cc(C(F)(F)F)ccc2Cl)c2ccccc2)CC1)NC1CC1 (stereo not drawn): 440
- CCOc1cc(Cc2cnc(N)nc2N)cc(OCC)c1-n1cccc1: 760
- CC(C)(C)OC(=O)N(Cc1cc(-n2nnnc2C(F)(F)F)ccc1O)[C@H]1CCCN(C(=O)OC(C)(C)C)[C@H]1c1ccccc1: 720
- CC(C)CCNc1nc(NCc2ccccc2)c2cc(O)ccc2n1: 110
- Cc1nc(-c2nc(NCc3ccncc3)ncc2-c2ccsc2)sc1C: 990

###

- System: P. falciparum 3D7 growth, pLDH absorbance
- procedure_text: blood-stage malaria parasite growth potency – strain 3D7, dose response (AID 2305)
pIC50: −log10 of the molar value.
measurement_label: pIC50

• COc1cccc(-c2ccc(NC(=O)C3CCCN(Cc4cccc(OC)c4O)C3)cc2)c1 (stereo not given) = 6.07
• O=C(NCCc1ccc(Cl)c(Cl)c1)[C@@H]1CCCN1C(=O)c1ccc(O)c(-c2cccc(C(F)(F)F)c2)c1 = 6.09
• Cc1nn(-c2ccccc2)c2nc(-c3ccccc3)cc(C(=O)N3CCOCC3)c12 = 6.06
• O=C(C=Cc1cccs1)N(CCCn1ccnc1)c1nc2ccc(F)cc2s1 = 5.80
• O=C(Nc1cc(F)cc(F)c1)N1CCOC(CCN2CCC(c3ccccc3)CC2)(c2ccc(Cl)c(Cl)c2)C1 (stereo not given) = 6.33
• Cc1cccc2[nH]c(-c3cccc(-c4ccc(NC(=O)Nc5ccsc5)cc4)c3)nc12 = 6.92
• COc1ccc(NS(=O)(=O)c2cc(NC(=O)Cn3ccccc3=O)ccc2N2CCCCC2)cc1 = 6.15
• Cc1ccc(Cn2c(N3CCC(C(=O)NCc4cccs4)CC3)nc3ccccc32)cc1 = 6.12
• COc1ccc2nccc([C@@H](O)CN3CCC(NCCOc4ccc(F)cc4F)CC3)c2c1 = 6.85
• CCCC(=O)NC(NC(=S)Nc1ccc([N+](=O)[O-])cc1)C(Cl)(Cl)Cl (stereo not given) = 5.99
• Cc1ccc2nc(-c3cc(-c4cccc(C#N)c4)cnc3N)[nH]c2c1 = 6.92
• CCN(CC)CCN(Cc1ccc(-c2ccc(C(F)(F)F)cc2)cc1)C(=O)Cn1c(CCc2c(F)cccc2F)nc(=O)c2ccccc21 = 6.19
• COC(=O)C(=C(C)C)N1C(=O)[C@@H](NC(=O)OCc2ccccc2)[C@H]1SS[C@@H]1[C@H](NC(=O)OCc2ccccc2)C(=O)N1C(C(=O)OC)=C(C)C = 6.37
• CCCCCCCN(Cc1ccc(OC(C)(C)C(=O)OCC)cc1)C(=O)Cc1ccc(F)cc1F = 5.99
• COCCN1CCC(N(Cc2ccc(-c3ccc(OC(F)(F)F)cc3)cc2)C(=O)Cn2c(CCc3cccc(F)c3F)cc(=O)c3ccccc32)CC1 = 5.92
• Cc1noc(C)c1-c1ccc(C(=C2CCCCCCC2)c2ccc(O)cc2)cc1 = 5.98
• NC(=O)c1cccc(CNC(=O)NC[C@H]2CN(Cc3ccc(Cl)c(Cl)c3)CCO2)c1 = 6.23
• CCOc1ccc(C(C)NC(=O)Cc2ccccc2F)cc1OCC (stereo not given) = 6.08
• CCCCN(CCCC)C(=N)c1cccc2c1CCCC2 = 5.81
• C=CCOC(=O)N1CCC(CNCc2ccc(-c3ccc(-c4nc5ccc(C(F)(F)F)cc5[nH]4)cc3)cc2)C1 (stereo not given) = 6.82
• Cc1cccc2[nH]c(-c3ccc(-c4ccc(CNCCCNS(C)(=O)=O)cc4)s3)nc12 = 6.00
• FC(F)(F)c1ccc2nc(-c3ccc(-c4cccc(CNCCc5cccnc5)c4)s3)[nH]c2c1 = 6.77
• Cc1ccc(CCNCC(O)c2cccc(C(F)(F)F)c2)cc1 (stereo not given) = 6.06
• Cc1occc1C(=O)Nc1nc(-c2ccccn2)nc2ccsc12 = 6.05
• Nc1nc(N)c2c(ccc3c2ccn3C2CCCCC2)n1 = 6.92

###

- Test system: P. falciparum 3D7 growth, pLDH absorbance
- procedure_text: blood-stage malaria parasite growth potency – strain 3D7, dose response (AID 2305)
# reported IC50; entries follow
measurement_label: IC50 (nM)

* CN1CCN(c2ccnc3ccc(NC(=O)Nc4cccc(C#N)c4)cc23)CC1 | 800
* O=C(Nc1cccc(CN2CCCN(Cc3ncc[nH]3)CC2)c1)c1ccc(Cl)c(Cl)c1 | 800
* Oc1cccc(-c2nc(-c3ccccc3)c(-c3ccc4oc5ccc(-c6[nH]c(-c7cccc(O)c7)nc6-c6ccccc6)cc5c4c3)[nH]2)c1 | 790

###

# reported pIC50; entries follow
- Test system: P. falciparum 3D7 growth, pLDH absorbance
- procedure_text: blood-stage malaria parasite growth potency – strain 3D7, dose response (AID 2305)
pIC50: −log10 of the molar value.
measurement_label: pIC50

- COc1cc(C)ccc1N1CCN(CCCCNC(=O)c2ccc(NC(=O)c3ccc(Cl)cc3)cc2)CC1: 6.15
- CCc1nc(N)nc(N)c1-c1ccccc1: 5.93
- O=C(NC1CCN(Cc2ccccc2)CC1)c1csc2nc(-c3ccc(Cl)cc3)cn12: 6.04
- CCN(CC)C(=O)c1cnc(-c2ccccc2)nc1Oc1cccc(Cl)c1: 5.94
- Cc1nn(-c2ccccc2)c2sc(C(=O)N(CCCN(C)C)c3nc(-c4ccccc4)cs3)cc12: 6.01
- COc1cc(NC(=O)N2CCOC(CCN3CCC(c4ccccc4)CC3)(c3ccc(Cl)c(Cl)c3)C2)cc(OC)c1 (configuration not stated): 6.54
- COCCn1c(C)cc(C(=O)CN2C(=O)NC(C)(c3ccc(C(C)(C)C)cc3)C2=O)c1C (configuration not stated): 6.33

Where do these numbers come from? They come from PubChem BioAssay AID2305.
